Provide the recorded GI50 for the entries that follow.
system: MOLT-4 leukemia; assay: NCI tumour cell line growth inhibition, 48 h

>  <Smiles Data>
O=C1C=Cc2ccccc2/C1=C/c1[nH]c(=O)[nH]c1O

>  <GI50>
4.19 µM

$$$$
>  <Smiles Data>
O=C(Nc1ncc(Cc2ccccc2Cl)s1)c1ccc2c(c1)OCCO2

>  <GI50>
0.581 µM

$$$$

Dear reader, for each entry below, please note its GI50.
1. O=[N+]([O-])/C=C/c1c[nH]c2ccccc12
2. Cc1cc(S(=O)(=O)Nc2nnc(-c3ccccc3)c(-c3ccccc3)n2)c(SCc2ccccc2)cc1Cl

Data returned:
1. 13.9 µM
2. 15 µM
